test: Pharmacokinetics of intravenous docetaxel with oral LC478 in rats; type: in vivo, Sprague–Dawley rats; conditions: male, Sprague-Dawley, rat, plasma, iv, 20 mg/kg, rats, docetaxel 20 mg/kg intravenous, with 0 mg/kg LC478; read-out: Vss
valueKind: Vd (L/kg)
The response must be a number in L/kg with no trailing unit.

*Q* Look up Vd: CC(=O)O[C@@]12CO[C@@H]1C[C@H](O)[C@@]1(C)C(=O)[C@H](O)C3=C(C)[C@@H](OC(=O)[C@H](O)[C@@H](NC(=O)OC(C)(C)C)c4ccccc4)C[C@@](O)([C@@H](OC(=O)c4ccccc4)[C@H]21)C3(C)C [docetaxel]
*A* 4.57
